Target: Jak2 (UniProt O60674)
Sequence (O60674 whole entry, looked up): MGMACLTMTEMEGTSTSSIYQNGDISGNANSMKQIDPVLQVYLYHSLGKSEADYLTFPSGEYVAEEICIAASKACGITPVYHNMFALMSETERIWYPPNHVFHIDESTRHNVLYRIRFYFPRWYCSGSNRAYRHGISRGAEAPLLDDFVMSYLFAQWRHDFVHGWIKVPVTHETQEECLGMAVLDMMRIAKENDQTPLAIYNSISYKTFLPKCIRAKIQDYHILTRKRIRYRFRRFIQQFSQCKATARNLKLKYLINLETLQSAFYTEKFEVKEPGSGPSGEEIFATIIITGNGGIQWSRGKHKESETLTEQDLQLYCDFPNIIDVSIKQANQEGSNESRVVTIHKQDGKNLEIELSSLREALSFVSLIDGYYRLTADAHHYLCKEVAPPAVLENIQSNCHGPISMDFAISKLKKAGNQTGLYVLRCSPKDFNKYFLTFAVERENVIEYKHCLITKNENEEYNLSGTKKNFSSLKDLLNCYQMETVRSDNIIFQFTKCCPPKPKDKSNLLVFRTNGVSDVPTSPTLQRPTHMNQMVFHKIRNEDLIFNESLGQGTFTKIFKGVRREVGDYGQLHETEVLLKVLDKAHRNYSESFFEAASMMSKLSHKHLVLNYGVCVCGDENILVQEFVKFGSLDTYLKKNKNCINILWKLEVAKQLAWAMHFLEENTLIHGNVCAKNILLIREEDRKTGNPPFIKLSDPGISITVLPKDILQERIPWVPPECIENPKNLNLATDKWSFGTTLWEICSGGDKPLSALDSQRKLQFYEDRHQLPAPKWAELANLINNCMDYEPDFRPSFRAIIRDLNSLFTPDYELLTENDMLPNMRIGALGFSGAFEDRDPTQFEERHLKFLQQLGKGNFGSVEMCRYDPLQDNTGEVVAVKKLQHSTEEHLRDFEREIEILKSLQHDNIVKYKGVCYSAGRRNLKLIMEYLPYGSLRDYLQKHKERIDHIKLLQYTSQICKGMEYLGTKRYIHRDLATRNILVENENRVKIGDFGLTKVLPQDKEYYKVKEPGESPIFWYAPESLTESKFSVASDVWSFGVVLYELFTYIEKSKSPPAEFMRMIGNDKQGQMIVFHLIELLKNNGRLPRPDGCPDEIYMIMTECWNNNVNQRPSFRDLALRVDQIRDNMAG
Experiment: phosphorylation enrichment, bacterial display (enrichment ratio); higher = better substrate or ligand; peptides without Tyr show the background
Property measured: phosphorylation enrichment
Answers are plain numbers.

PSQRRYVFFFS [PTEN_Y174_YF]	1.16
LFEDRYLLGTS [ASS1_Y87_YF]	0.885

Give phosphorylation enrichment for all sequences that follow.
1. HFVDEYDPTME [KRAS_Y32_I36M]
2. GGSDCYGSLRP [MYLK_Y846_R845C]
3. FAGRDYSLDEF [MYOF_Y1705_G1701A_YF]
4. EKQVAYCPSGR [ROS1_Y2323_K2328R]
5. RREWYYEVIIA [BACE1_Y260_V265A]

1.33
0.792
1.01
1.27
1.26

Give phosphorylation enrichment for all sequences that follow.
1. GQKVAYGGTED [ALDH3A1_Y305_G309E]
2. VRVQLYDPDFM [CYP4A22_Y100_Y104F]
3. KLIMEYLPYGS [JAK2_Y931]
4. PLTKVYVVEGS [ZMPSTE24_Y253]
5. RLSELYLRRNP [CFAP410_Y68_R73P]

[0.791, 1.07, 0.945, 0.526, 0.659]

Give phosphorylation enrichment for all sequences that follow.
1. QFKGKYLAKHN [CASK_Y712_D710G_YF]
2. MSRNLYSGDCF [DDR2_Y736_Y740C_YF]
3. SDGKRYRVPSD [HHIPL2_Y395_H391D]
4. CTTIHHNFMCN [TP53_Y234_Y234H_YF]
5. SISLRYEGRVY [ABL1_Y167]

1. 0.855
2. 0.903
3. 0.771
4. 0.606
5. 1.06

Give phosphorylation enrichment for all sequences that follow.
1. CGQDPYIRELG [UROS_Y19]
2. YTGDIYSNSNL [LZTR1_Y141]

1. 0.971
2. 0.524

* * *

For each of the sequences below, state its phosphorylation enrichment.
System: AncSZ
Experiment: phosphorylation enrichment, bacterial display (enrichment ratio); higher = better substrate or ligand; peptides without Tyr show the background
Answers are plain numbers.

Field: example entries. Status: answers known.
VITTLYIGFLG [KCNQ1_Y267_L262V]	1.18
HFVDEYDPTIE [KRAS_Y32]	1.74
NTGNYYDLYGG [PTPN11_Y63_D61N]	1.73
EGLRRYLENGK [HLA-A_Y195_W191G]	0.463
IIQRAYRGHLL [SCN1A_Y1926_R1928G]	0.483
GRPLSYWLTGC [LYZL6_Y140_F139S]	1.12
CTTIHYNYMWN [TP53_Y234_C238W]	1.21
SSYSGYIMMPN [LEF1_Y114]	0.858

Give phosphorylation enrichment for all sequences that follow.
1. TDHLQYFDSNK [ARAP1_Y359_R358Q]
2. IHTDAYVRAMT [RPE65_Y89_R85H]

1. 0.809
2. 0.475

* * *

Molecular target: MERTK (UniProt Q12866)
Sequence (Q12866 whole entry, looked up): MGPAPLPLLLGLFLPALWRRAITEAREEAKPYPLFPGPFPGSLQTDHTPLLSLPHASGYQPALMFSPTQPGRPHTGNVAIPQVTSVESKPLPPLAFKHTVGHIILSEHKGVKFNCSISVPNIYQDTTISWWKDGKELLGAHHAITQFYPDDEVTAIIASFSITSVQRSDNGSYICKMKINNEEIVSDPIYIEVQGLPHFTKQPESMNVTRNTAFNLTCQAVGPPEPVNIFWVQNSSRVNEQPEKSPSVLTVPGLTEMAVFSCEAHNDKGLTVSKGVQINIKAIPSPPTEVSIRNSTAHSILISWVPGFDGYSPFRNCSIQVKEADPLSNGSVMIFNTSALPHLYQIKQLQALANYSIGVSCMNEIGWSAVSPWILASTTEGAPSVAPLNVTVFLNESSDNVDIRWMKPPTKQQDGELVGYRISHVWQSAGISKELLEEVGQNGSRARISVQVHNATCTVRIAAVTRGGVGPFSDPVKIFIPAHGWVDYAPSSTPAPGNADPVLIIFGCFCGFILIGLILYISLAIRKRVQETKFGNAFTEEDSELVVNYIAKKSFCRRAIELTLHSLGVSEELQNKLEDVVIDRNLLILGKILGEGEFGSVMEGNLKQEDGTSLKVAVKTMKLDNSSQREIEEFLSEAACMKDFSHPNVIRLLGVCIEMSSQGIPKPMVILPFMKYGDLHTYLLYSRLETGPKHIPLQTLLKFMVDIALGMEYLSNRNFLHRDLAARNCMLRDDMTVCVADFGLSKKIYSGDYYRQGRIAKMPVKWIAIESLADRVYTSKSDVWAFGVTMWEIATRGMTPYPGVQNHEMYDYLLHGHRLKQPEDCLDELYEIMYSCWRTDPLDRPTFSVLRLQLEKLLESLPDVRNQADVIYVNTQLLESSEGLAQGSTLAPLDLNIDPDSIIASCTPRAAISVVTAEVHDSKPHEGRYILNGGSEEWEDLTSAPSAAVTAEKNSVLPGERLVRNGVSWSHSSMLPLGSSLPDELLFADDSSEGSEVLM
Experiment: phosphorylation enrichment, bacterial display (enrichment ratio); higher = better substrate or ligand; peptides without Tyr show the background
Property measured: phosphorylation enrichment
Answers are plain numbers.

VAHAVYQAVLS [SMG1_Y549]	4.22
YLNSSYINIST [IL23R_Y178_T175N]	0.606

Give phosphorylation enrichment for all sequences that follow.
1. VGGRIYIDDGL [PKLR_Y218]
2. KVNKIYFPDFI [LIG3_Y767_YF]
3. IKNPQYFSDAC [NTRK1_Y496_E492K]
4. TISPYYCQSLF [CRYAA_Y48_R49C]
5. YMKEPYIQSRF [HIPK4_Y175_V171M]
6. DKITQYVEEVK [STX2_Y49]
7. VVHGSYDEIEG [SEC24A_Y263_S261G]
8. LEFNEYFRDLN [HPRT1_Y198_D194E_YF]

1: 0.383; 2: 0.473; 3: 0.344; 4: 5.18; 5: 0.659; 6: 0.505; 7: 0.431; 8: 0.795

* * *

Molecular target: MERTK (UniProt Q12866)
Assay: phosphorylation enrichment, bacterial display (enrichment ratio); higher = better substrate or ligand; peptides without Tyr show the background
For each of the sequences below, state its phosphorylation enrichment.
One number for each entry.

Field: example entries. Status: answers known.
PGLSSYGVPAS [FLNB_Y1530]	0.497
WLQKLYNNFVN [MYO5C_Y526]	0.429
SYCYRYRCAAW [SUMF1_Y344_R349W]	0.497
AEVDTYCRHNF [HLA-DRB1_Y107_A103E_YF]	0.473

Give phosphorylation enrichment for all sequences that follow.
1. TVLWWYTGTRP [UGT1A1_Y337_R336W]
2. CDDGKYVFVVT [RPS6KA3_Y488_Y483C_YF]
3. CTTIHYNFLCN [TP53_Y234_M237L_YF]
4. GRQVIYTENER [GPR143_Y231_G229V]
5. IHKEFYDGLFP [BCR_Y561]

[0.277, 0.437, 0.435, 0.43, 0.823]

Give phosphorylation enrichment for all sequences that follow.
1. QRAADYFSQQM [GBP6_Y333_YF]
2. VVLVSYVPFSQ [SH2B1_Y624_S627F]
3. LMVFEYMRHGD [NTRK1_Y591]
4. ASGKYYAMKIL [AKT3_Y174]
5. YRASYYRRGDR [LTK_Y677]

0.352
0.496
0.426
0.591
0.603

* * *

For each of the sequences below, state its phosphorylation enrichment.
Test system: c-Abl (mouse)
Assay: phosphorylation enrichment, bacterial display (enrichment ratio); higher = better substrate or ligand; peptides without Tyr show the background
Numbers only.

CGTPDNIAPEI [PRKCG_Y521_Y521N]	0.782
INSLKYAYNIS [EIF2B5_Y583]	0.421
FETDFYQKGGK [INSR_Y1190_R1191Q_YF]	0.523
GVPLGYPIKAP [ELN_Y206]	0.485

Give phosphorylation enrichment for all sequences that follow.
1. AGQEDYDRLRP [CDC42_Y64]
2. VDTRAYLTSAT [MT-CO1_Y304_F305L]
3. DTKDDYNALSV [IL17RB_Y457]
4. KGEDFYCVTFH [FHL1_Y149_C153Y_YF]
5. GRPLFYWLTGC [LYZL6_Y140]

0.689
0.637
0.679
0.895
0.713

Give phosphorylation enrichment for all sequences that follow.
1. YGGLRYGYGGL [KRTAP20-2_Y13_V17G]
2. PSQRHYVYYYS [PTEN_Y174_R173H]
3. EKKKYYDAKIE [CASP5_Y104_T106A]
4. KACKHYLTKRT [ZBTB5_Y118_T121K]
5. LSCLAYSGKDA [FXN_Y205_S202C]

0.559
1.28
0.609
1.05
1.15

* * *

Target: c-Src SH2
Experiment: SH2 binding enrichment of the phosphorylated peptide, bacterial display (enrichment ratio); higher = better substrate or ligand; peptides without Tyr show the background
The label depends only on SH2 binding enrichment: 1 if it is at least 0.5, -1 if it is smaller.

Examples with answers:
EAAFVYAISSA [WNT4_Y113]	1
CTTIHYFFMCN [TP53_Y234_N235Y_YF]	1
LVMFIYVIFGM [SCN1A_Y1684_A1685V]	1

Consider the additional sequence presented here.
Exam item: decide whether the reported SH2 binding enrichment for SIIKDYFHRGA [GATM_Y203] is at least 0.5.
1

* * *

Target: FGFR1 (UniProt P11362)
Sequence (P11362 whole entry, looked up): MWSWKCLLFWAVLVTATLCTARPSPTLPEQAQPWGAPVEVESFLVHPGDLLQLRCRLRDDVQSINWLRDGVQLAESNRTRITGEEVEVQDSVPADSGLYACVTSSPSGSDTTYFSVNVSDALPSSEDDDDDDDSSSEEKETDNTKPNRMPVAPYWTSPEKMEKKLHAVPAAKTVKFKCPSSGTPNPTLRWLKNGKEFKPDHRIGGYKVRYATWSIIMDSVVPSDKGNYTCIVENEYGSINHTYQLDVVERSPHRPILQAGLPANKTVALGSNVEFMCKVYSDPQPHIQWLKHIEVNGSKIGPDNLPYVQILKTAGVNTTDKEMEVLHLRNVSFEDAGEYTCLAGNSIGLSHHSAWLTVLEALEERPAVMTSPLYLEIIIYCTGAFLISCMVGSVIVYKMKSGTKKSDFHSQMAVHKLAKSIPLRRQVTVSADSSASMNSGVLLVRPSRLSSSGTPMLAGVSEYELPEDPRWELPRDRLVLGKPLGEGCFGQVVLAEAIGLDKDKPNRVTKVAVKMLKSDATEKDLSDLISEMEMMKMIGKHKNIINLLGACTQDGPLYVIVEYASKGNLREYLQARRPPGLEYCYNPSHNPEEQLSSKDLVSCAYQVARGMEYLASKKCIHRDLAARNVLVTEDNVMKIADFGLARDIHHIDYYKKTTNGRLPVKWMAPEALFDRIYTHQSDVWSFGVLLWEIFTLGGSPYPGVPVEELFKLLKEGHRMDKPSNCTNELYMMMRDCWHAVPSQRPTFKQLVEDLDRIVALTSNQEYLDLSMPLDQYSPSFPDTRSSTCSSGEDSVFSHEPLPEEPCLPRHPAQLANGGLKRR
Assay: phosphorylation enrichment, bacterial display (enrichment ratio); higher = better substrate or ligand; peptides without Tyr show the background
Property measured: phosphorylation enrichment
Give bare numbers.

Field: example entries. Status: answers known.
FDNPVCQKTTE [LDLR_Y828_Y828C]	0.57
CTTNHYNYMCN [TP53_Y234_I232N]	0.479
MVTSGYKAKMI [EFR3A_Y447_T451M]	0.384

Give phosphorylation enrichment for all sequences that follow.
1. ELAVNYQEQAS [SLC9A9_Y591_I589V]
2. PNRILYGDFWQ [MYH6_Y717_R721W]
3. HLDRSYSYSYS [PEAR1_Y890_R885H]
4. SSPQPYLVPFL [TAF4_Y652]
5. TDKLFYIFTSG [SLC27A4_Y243_YF]
6. VPLLEYFWDIF [CDAN1_Y712_R714W_YF]

1: 0.605; 2: 0.555; 3: 0.558; 4: 0.522; 5: 0.686; 6: 3.61

* * *

Target: SHP2-C SH2
Test: SH2 binding enrichment of the phosphorylated peptide, bacterial display (enrichment ratio); higher = better substrate or ligand; peptides without Tyr show the background
The label depends only on SH2 binding enrichment: rule met if it is at least 0.7, rule not met if it is smaller.

IIEDPYYGNDF [ACP1_Y132_S137F]	rule not met
FRVAGYKTQGG [TIA1_Y383_E384K_YF]	rule not met
GQECEYPPTQD [METAP2_Y137]	rule met
VILENYGADID [DNAH5_Y596_L591V]	rule not met
YFRDGHMPRQY [GSS_Y270_Y270H]	rule met

Exam item: decide whether the reported SH2 binding enrichment for AFPVSYSSSSA [RET_Y687_G691S] is at least 0.7.
rule not met

Next: IGHHAYGDQFR [IDH1_Y135_R132H_YF]
rule not met

Next: EQKKFYNAMKK [SCN5A_Y1495_YF]
rule met

Next: GRGMPYGGRGD [TGM1_Y312_R307G]
rule not met

Next: NCLRVYVAGRF [CRB1_Y711_E710V]
rule met

Next: KALKQYRAGPS [DDX27_Y763]
rule met

Next: FDGGCYEQLFV [MC4R_Y41_S36Y_YF]
rule not met
